For each entry below, report its IC50 (nM) Calcium Flux Assay value.
Target: human CCR10 (human) (UniProt P46092)
Sequence (P46092 whole entry): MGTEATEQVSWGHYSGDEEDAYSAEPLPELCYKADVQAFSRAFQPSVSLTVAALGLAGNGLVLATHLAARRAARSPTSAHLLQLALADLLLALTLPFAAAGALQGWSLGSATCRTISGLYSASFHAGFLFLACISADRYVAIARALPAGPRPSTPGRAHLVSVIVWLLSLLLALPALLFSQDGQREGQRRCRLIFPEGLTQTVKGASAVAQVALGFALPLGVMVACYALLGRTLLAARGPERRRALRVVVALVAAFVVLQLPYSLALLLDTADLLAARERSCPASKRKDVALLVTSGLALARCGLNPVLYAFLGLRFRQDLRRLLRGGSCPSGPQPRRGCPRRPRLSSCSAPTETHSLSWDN
Test: cell-based or functional assay
Give bare numbers, in nM.

These solved cases illustrate the format of a correct answer.
[[record]]
substance = "cyclo(-2Nal-Cyp-Trp-Gln-^DPro-Tic-) (peptide)"
measuredendpoint = "IC50 (nM) Calcium Flux Assay"
resultvalue = 9.2

[[record]]
substance = "cyclo(-Tyr(4MeOCOBn)-Cyp-Trp-Dab-^DPro-Oic-) (peptide)"
measuredendpoint = "IC50 (nM) Calcium Flux Assay"
resultvalue = 16.7

[[record]]
substance = "cyclo(-Phe(4CN)-Cyp-Trp-Ser-^DPro-Hyp(4BrBn)-) (peptide)"
measuredendpoint = "IC50 (nM) Calcium Flux Assay"
resultvalue = 5.3

[[record]]
substance = "cyclo(-Trp-Cyp-Trp-Dab-^DPip-Oic-) (peptide)"
measuredendpoint = "IC50 (nM) Calcium Flux Assay"
resultvalue = 26


Next:
Measured IC50 (nM) Calcium Flux Assay of cyclo(-Trp-Cyp-Trp-Arg-^DPro-Tic(7OH)-) (peptide) : 78.5

###

For each entry below, report its log10 of IC50 (nM) Calcium Flux Assay value.
Molecular target: human CCR10 (human)
Test: cell-based or functional assay
Plainly stated, the numbers are log10 of IC50 (nM) Calcium Flux Assay given in nM.

These solved cases illustrate the format of a correct answer.
[[record]]
substance = "cyclo(-Trp-Cyp-Trp-Dab-^DPro-Pro((4S)F)-) (peptide)"
system = "human CCR10 (human)"
measuredendpoint = "log10 of IC50 (nM) Calcium Flux Assay"
resultvalue = 2.93

[[record]]
substance = "cyclo(-Phe(4CF3)-Cyp-Trp-Dab-^DPro-Hyp(4BrBn)-) (peptide)"
system = "human CCR10 (human)"
measuredendpoint = "log10 of IC50 (nM) Calcium Flux Assay"
resultvalue = 1.35

[[record]]
substance = "cyclo(-Trp-Cyp-Trp-Ser-^DPip-Oic-) (peptide)"
system = "human CCR10 (human)"
measuredendpoint = "log10 of IC50 (nM) Calcium Flux Assay"
resultvalue = 0.84

[[record]]
substance = "cyclo(-Tyr(Ph)-Cyp-Trp-Dab-^DPro-Oic-) (peptide)"
system = "human CCR10 (human)"
measuredendpoint = "log10 of IC50 (nM) Calcium Flux Assay"
resultvalue = 0.04

[[record]]
substance = "cyclo(-Trp-Cyp-Trp-Gln-^DPro-Oic-) (peptide)"
system = "human CCR10 (human)"
measuredendpoint = "log10 of IC50 (nM) Calcium Flux Assay"
resultvalue = 1.65


Provide each entry's log10 of IC50 (nM) Calcium Flux Assay from the list below.
1. cyclo(-Phe(3CF3)-Cyp-Trp-Dab-^DPro-Oic-) (peptide)
2. cyclo(-Trp(5OH)-Cyp-Trp-Arg-^DPro-Thz(5,5Me2)-) (peptide)
3. cyclo(-Trp-Cyp-Trp-Dab-^DPro-Pro((4R)Bn)-) (peptide)
4. cyclo(-Trp-Cyp-Trp-Dab-^DPro-Hyp-) (peptide)
5. cyclo(-Trp-Cyp-Trp-Gln(iPr)-^DPro-Oic-) (peptide)

Response line:
1. 1.61
2. 2.33
3. 1.42
4. 2.28
5. 1.40

###

For each entry below, report its IC50 (nM) Chemotaxis Assay value.
Biological target: human CCR10 (human) (UniProt P46092)
Assay: cell-based or functional assay
Answers are plain numbers, in nM.

These solved cases illustrate the format of a correct answer.
[[record]]
substance = "cyclo(-Trp-Cyp-Trp-Lys((5R)OH)-^DPro-Oic-) (peptide)"
resultvalue = 7

[[record]]
substance = "cyclo(-Trp-Cyp-Trp-Dab(Ac)-^DPro-Oic-) (peptide)"
resultvalue = 4.8

[[record]]
substance = "cyclo(-Nle(6OBn)-Cyp-Trp-Dab-^DPro-Oic-) (peptide)"
resultvalue = 16.6

[[record]]
substance = "cyclo(-Trp-Cyp-Trp-Lys(Bz)-^DPro-Oic-) (peptide)"
resultvalue = 2.7


# value of IC50 (nM) Chemotaxis Assay, human CCR10 (human) (UniProt P46092), item cyclo(-Trp-Cyp-Trp-hCys-^DPro-Oic-) (peptide) = 8.7

###

Target: human CCR10 (human)
Assay: cell-based or functional assay
For each entry below, report its IC50 (nM) Calcium Flux Assay value.
Answers are plain numbers, in nM.

These solved cases illustrate the format of a correct answer.
[[record]]
substance = "cyclo(-Trp-Cyp-Trp-Dap(MeO(CH2)2)-^DPro-Oic-) (peptide)"
measuredendpoint = "IC50 (nM) Calcium Flux Assay"
readoutunit = "nM"
resultvalue = 56.8

[[record]]
substance = "cyclo(-Trp-Cyp-Trp-Dab-^DPro-Hyp(Ph)-) (peptide)"
measuredendpoint = "IC50 (nM) Calcium Flux Assay"
readoutunit = "nM"
resultvalue = 42

[[record]]
substance = "cyclo(-Trp-Cyp-Trp-Lys(Ac)-^DPro-Oic-) (peptide)"
measuredendpoint = "IC50 (nM) Calcium Flux Assay"
readoutunit = "nM"
resultvalue = 28

[[record]]
substance = "cyclo(-Trp-Cyp-Trp-Dab-^DPro-Thz-) (peptide)"
measuredendpoint = "IC50 (nM) Calcium Flux Assay"
readoutunit = "nM"
resultvalue = 134


Provide each entry's IC50 (nM) Calcium Flux Assay from the list below.
1. cyclo(-Trp(5OH)-Cyp-Trp-Arg-^DPro-Tic-) (peptide)
2. cyclo(-Phe(4CN)-Cyp-Trp-Dab-^DPro-Oic-) (peptide)
3. cyclo(-Trp-Cyp-Trp-Dab(MeSO2)-^DPro-Oic-) (peptide)
4. cyclo(-Trp-Cyp-Trp-Dab(MeO(CH2)2NHCO)-^DPro-Oic-) (peptide)
5. cyclo(-Trp-Cyp-Trp-Dab(Dab)-^DPro-Oic-) (peptide)
6. cyclo(-Trp-Cyp-Trp-Lys(Bz)-^DPro-Oic-) (peptide)
7. cyclo(-Trp-Cyp-Trp-Dab-^DAze-Tic-) (peptide)
8. cyclo(-Phe(4CF3)-Cyp-Trp-Dab-^DPro-Oic-) (peptide)

Response line:
[52.5, 280, 0.2, 24.2, 567, 3, 57, 58.1]

Provide each entry's IC50 (nM) Calcium Flux Assay from the list below.
1. cyclo(-Trp-Cyp-Trp-Ser(Me)-^DPro-Oic-) (peptide)
2. cyclo(-OctG-Cyp-Trp-Dab-^DPro-Oic-) (peptide)

Response line:
1. 46.4
2. 40.4

Provide each entry's IC50 (nM) Calcium Flux Assay from the list below.
1. cyclo(-Trp-Cyp-Trp-Ser-^DPro-Oic-) (peptide)
2. cyclo(-Trp-Cyp-Trp-alloThr-^DPro-Oic-) (peptide)
3. cyclo(-Trp-Cyp-Trp-Lys(Nic)-^DPro-Oic-) (peptide)

Response line:
1. 61.6
2. 11.6
3. 49.5

Provide each entry's IC50 (nM) Calcium Flux Assay from the list below.
1. cyclo(-Trp-Cyp-Trp-Dab(morphCO)-^DPro-Oic-) (peptide)
2. cyclo(-Trp-Cyp-Trp-hCys-^DPro-Oic-) (peptide)
3. cyclo(-Trp-Cyp-Trp-Dab-^DPro-Hyp(4BrBn)-) (peptide)
4. cyclo(-Trp(6Cl)-Cyp-Trp-Ser-^DPro-Oic-) (peptide)
5. cyclo(-Trp-Cyp-Trp-hSer(Me)-^DPro-Oic-) (peptide)

Response line:
1. 3
2. 54.9
3. 11.6
4. 6.3
5. 12

Provide each entry's IC50 (nM) Calcium Flux Assay from the list below.
1. cyclo(-Trp-Cyp-Trp-Arg-^DPro-Thz-) (peptide)
2. cyclo(-Trp-Cyp-Trp-Dab-^DPro-Hyp(Bn)-) (peptide)
3. cyclo(-Phe(4CN)-Cyp-Trp-Gln-^DPro-Hyp(Bn)-) (peptide)
4. cyclo(-Tyr(40HPh)-Cyp-Trp-Dab-^DPro-Oic-) (peptide)
5. cyclo(-Trp-Cyp-Trp-Dab(MEMCO)-^DPro-Oic-) (peptide)
6. cyclo(-Phe(4CN)-Cyp-Trp-Ser-^DPro-Oic-) (peptide)
7. cyclo(-Bip-Cyp-Trp-Dab-^DPro-Oic-) (peptide)

Response line:
[70.6, 65.8, 21.7, 48.9, 62.8, 80.3, 8.1]

Provide each entry's IC50 (nM) Calcium Flux Assay from the list below.
1. cyclo(-Trp-Cyp-Trp-hArg-^DPro-Oic-) (peptide)
2. cyclo(-Phe(4CN)-Cyp-Trp-Ser-^DPip-Hyp(Bn)-) (peptide)
3. cyclo(-Trp(5OH)-Cyp-Trp-Gln-^DPro-Thz-) (peptide)

Response line:
[25, 0.5, 144]

Provide each entry's IC50 (nM) Calcium Flux Assay from the list below.
1. cyclo(-Trp-Cyp-Trp-Dab-^DPro-Oic-) (peptide)
2. cyclo(-Trp-Cyp-Trp-Thr-^DPro-Oic-) (peptide)
3. cyclo(-Trp-Cyp-Trp-Dap((MeO(CH2)2)2)-^DPro-Oic-) (peptide)

Response line:
1: 123; 2: 20.4; 3: 399
